# ASSAY DETAILS: Partition coefficient (logD7.4)
# Type: physicochemical
# SETTINGS: octanol/water, pH 7.4
MEASURED PARAMETER: logD
Lab note: record the figure alone, no unit after it.

*Q* What value of logD has been reported for the following compound? "CC(C)(C)NCc1ccc(S(=O)(=O)c2csc(S(N)(=O)=O)c2)cc1.Cl"
*A* -0.143

----------
Each entry below carries its recorded solubility.
# ASSAY DETAILS: Aqueous solubility (25 degree C)
# Assay type: physicochemical
# SETTINGS: read-out: S
Just the number please, in µg/mL, no unit attached.

Please review the following examples before continuing.
1) CCC(C)NCc1cccc(S(=O)(=O)c2csc(S(N)(=O)=O)c2)c1.Cl (stereo unspecified)	20000
2) Cl.NS(=O)(=O)c1cc(C(=O)c2cccc(CN3CCOCC3)c2)cs1	4800
3) CCCCNCc1ccc(C(=O)c2csc(S(N)(=O)=O)c2)cc1.Cl	2400

Turning now to a further record.
*Q* What value of solubility has been reported for the following compound? "CC(C)(C)NCc1ccc(S(=O)(=O)c2csc(S(N)(=O)=O)c2)cc1.Cl"
*A* 4500

----------
Each entry below carries its recorded solubility.
# ASSAY DETAILS: Solubility (pH 7.4, 25 degree C)
# Assay type: physicochemical
# SETTINGS: buffer, read-out: S
Just the number please, in µg/mL, no unit attached.

Please review the following examples before continuing.
1) Cl.NS(=O)(=O)c1cc(S(=O)(=O)c2ccc(CN3CCOCC3)cc2)cs1	850
2) CCCCNCc1ccc(C(=O)c2csc(S(N)(=O)=O)c2)cc1.Cl	460

Turning now to a further record.
*Q* What value of solubility has been reported for the following compound? "Cl.NS(=O)(=O)c1cc(C(=O)c2ccc(CN3CCOCC3)cc2)cs1"
*A* 70

----------
The next entries give measured Ki for Carbonic anhydrase 2 (Homo sapiens).
Just the number please, in nM, no unit attached.

1. CC(C)CNCc1cccc(C(=O)c2csc(S(N)(=O)=O)c2)c1.Cl	14.5
2. CN(C)Cc1cc(C(=O)c2csc(S(N)(=O)=O)c2)ccc1O.Cl	34.4
3. CC(C)CNCc1ccc(S(=O)(=O)c2csc(S(N)(=O)=O)c2)cc1.Cl	6.5

Turning now to a further record.
*Q* What value of Ki has been reported for the following compound? "Cl.NS(=O)(=O)c1cc(C(=O)c2ccc(CN3CCOCC3)cc2)cs1"
*A* 3.32

----------
# ASSAY DETAILS: Ionization constant (pKa)
# Assay type: physicochemical
MEASURED PARAMETER: pKa

Please review the following examples before continuing.
1. NS(=O)(=O)c1cc(S(=O)(=O)c2ccc(O)cc2)cs1	9.2
2. CN1CCN(Cc2ccccc2S(=O)(=O)c2csc(S(N)(=O)=O)c2)CC1.Cl	8.8
3. CCCCNCc1ccc(C(=O)c2csc(S(N)(=O)=O)c2)cc1.Cl	9.32
4. Cl.NS(=O)(=O)c1cc(S(=O)(=O)c2ccc(CN3CCOCC3)cc2)cs1	8.84
5. CN1CCN(Cc2ccc(C(=O)c3csc(S(N)(=O)=O)c3)cc2)CC1.Cl	9.32
6. Cl.NS(=O)(=O)c1cc(C(=O)c2cccc(CN3CCOCC3)c2)cs1	9.03

Turning now to a further record.
*Q* What value of pKa has been reported for the following compound? "CN1CCN(Cc2ccc(S(=O)(=O)c3csc(S(N)(=O)=O)c3)cc2)CC1.Cl"
*A* 9.25
